# Assayed system: Nucleoprotein (Lymphocytic choriomeningitis virus (strain Armstrong))
# Method description: qHTS for Inhibitors of the Functional Ribonucleoprotein Complex (vRNP) of Lymphocytic Choriomeningitis Arenaviruses (LCMV): LCMV Primary Screen - GLuc reporter signal (AID 1347086); note: nearly all actives have a fitted effect of over 70% in size
# Test parameters: LCMV minigenome vRNP cell assay, Gaussia luciferase reporter; series mostly up to 57.5 µM
Inconclusive results are not listed. The source made the active and inactive calls. Calls come from the whole dose curve.
Please reply with one of these outcomes: active, inactive

A selection of reference data follows.
INSERT INTO measurements (compound, class_label) VALUES
  ('Oc1cc2c(c(Cl)c1O)CCNCC2c1ccccc1 (configuration not stated)', 'inactive'),
  ('CC1=C(C=O)C(C)(C)CCC1', 'inactive'),
  ('CC[C@H](NC(=O)[C@H](C)NC)C(=O)N1C[C@@H](O)C[C@H]1Cc1c(-c2[nH]c3cc(F)ccc3c2C[C@H]2C[C@H](O)CN2C(=O)[C@H](CC)NC(=O)[C@H](C)NC)[nH]c2cc(F)ccc12', 'active');

input: Answer briefly: the call reported for COc1cc(-c2cc(=O)c3c(O)cc(O)cc3o2)ccc1O in this assay.
output: inactive

input: Request: C[N+]1([O-])[C@@H]2Cc3cc4c(cc3[C@@H]1Cc1cc3c(cc12)OCO3)OCO4 (some centres not stated)
output: inactive

input: Request: CCCCS(=N)(=O)CCC(N)C(=O)O (configuration not stated)
output: inactive

input: Request: Cn1c(-c2ccccc2)cc(=O)c2ccccc21
output: inactive

input: Request: O=C(O)CC1CCCc2ccccc2C1O (configuration not stated)
output: inactive

###

# Tested on: CRL-7250
# Method description: qHTS assay to identify novel small-molecules to repurpose for Merkel cell carcinoma treatment (AID 1296009); note: nearly all actives have a fitted effect of over 60% in size
# Test parameters: MCC and control cell lines, CellTiter-Glo viability, 72 h; series mostly up to 92 µM
Results filed as inconclusive are left out. Calls of active or inactive are those of the source. Calls follow the shape of the dose curve; as a rule, active = well fitted inhibition curve with a large enough effect; inconclusive = small, poorly fitted or top-dose-only effect; inactive = flat fitted curve, though single readings scatter.
Reported property: outcome

Worked set:
INSERT INTO measurements (molecule, reported_property, meas_value) VALUES
  ('OC[C@H]1OC(O)C[C@@H](O)[C@H]1O (stereo partly specified)', 'outcome', 'inactive'),
  ('C=C1C(=O)O[C@@H]2C[C@H](C)[C@@]3(O)C=C(C(C)=O)[C@]4(CC3C[C@H]12)C(=O)O[C@H]1C[C@@H](C)C(CCC(C)=O)=CC[C@H]14 (stereo partly specified)', 'outcome', 'inactive'),
  ('CC1=C2C(=O)C=C(CO[C@@H]3O[C@H](CO)[C@@H](O)[C@H](O)[C@H]3O)[C@@H]2[C@H]2OC(=O)[C@H](C)[C@@H]2[C@@H](O)C1', 'outcome', 'inactive'),
  ('CC/C(=C(\c1ccc(O)cc1)c1ccc(OCCNC)cc1)c1ccccc1', 'outcome', 'inactive'),
  ('C=CC(C)(O)CC/C=C(\C)C(=O)O[C@@H]1[C@@H](O)[C@H](OC(C)(C=C)CC/C=C(\C)C(=O)O)O[C@H](CO)[C@H]1OC(=O)/C(C)=C/CCC(C)(O)C=C (stereo partly specified)', 'outcome', 'inactive');

Now consider the entry below.
input: I have this molecule here, CC1(C)CC[C@]2(C(=O)O[C@@H]3O[C@H](CO)[C@@H](O)[C@H](O)[C@H]3O)CC[C@]3(C)C(=CCC4[C@@]5(C)C[C@@H](O)[C@H](O)C(C)(C)C5[C@H](O)C[C@]43C)[C@@H]2[C@@H]1O (stereo partly specified) , and I need its recorded outcome.
output: inactive

###

# Tested on: NIH3T3
# Method description: Cytotoxic Profiling of Annotated Libraries Using Quantitative High-Throughput Screening (AID 1296008); note: nearly all actives have a fitted effect of over 60% in size
# Test parameters: Five cell lines viability, CellTiter-Glo ATP luminescence, 48-72 h
Records with an inconclusive call do not appear. Calls of active or inactive are those of the source. Calls follow the shape of the dose curve; as a rule, active = well fitted inhibition curve with a large enough effect; inconclusive = small, poorly fitted or top-dose-only effect; inactive = flat fitted curve, though single readings scatter.
Please reply with one of these outcomes: class 1 (active), class 0 (inactive)

A selection of reference data follows.
INSERT INTO results (molecule, class_label) VALUES
  ('C[C@H]1CC[C@@H]2[C@@H](C)[C@H]3[C@H](C[C@H]4[C@@H]5CC=C6CC(O[C@@H]7O[C@H](CO)[C@@H](O)[C@H](O[C@@H]8O[C@H](CO)[C@@H](O)[C@H](O)[C@H]8O)[C@@H]7O[C@@H]7O[C@@H](C)[C@H](O)[C@@H](O)[C@H]7O)CC[C@]6(C)[C@H]5CC[C@]34C)N2C1 (some centres undefined)', 'class 0'),
  ('C=C(CO)[C@@]12O[C@@H]1[C@@]1(C)C(=CC2=O)CC[C@@H](O)[C@@H]1C', 'class 1'),
  ('CC(=O)OC[C@]12C[C@H](O)C(C)=C[C@H]1O[C@@H]1[C@H](O)[C@@H](O)[C@@]2(C)[C@]12CO2', 'class 1'),
  ('CCC1NC(=O)C2C(Cl)C(Cl)CN2C(=O)C(CC)NC(=O)CC(c2ccccc2)NC(=O)C(CO)NC1=O (centres undefined)', 'class 0');

input: Answer briefly: the call reported for C/C=C(\C)C(=O)OC1CC2C(CC=C3CC(OC4CC(OC)C(OC5CC(OC)C(OC6CC(OC)C(OC7CC(OC)C(O)C(C)O7)C(C)O6)C(C)O5)C(C)O4)CCC32C)C2(O)CCC(C(C)=O)C12C (centres undefined) in this assay.
output: class 0

input: Request: Cc1sc2c(c1C)C(c1ccc(Cl)cc1)=NC(CC(=O)Nc1ccc(O)cc1)c1nnc(C)n1-2 (centres undefined)
output: class 1

input: Request: CN1CCN(c2nc3ccccc3nc2Cl)CC1
output: class 0

input: Request: CC(=O)OC[C@]12C[C@H](O)C(C)=C[C@H]1O[C@@H]1[C@H](O)[C@@H](OC(C)=O)[C@@]2(C)[C@]12CO2
output: class 1

input: Request: C/C=C(\C)C(=O)O[C@@H]1[C@@H](C)[C@]2(O)C3C=C(C)C(=O)[C@@]3(O)CC(CO)=C[C@H]2C2C(C)(C)[C@@]21OC(=O)C(C)CC (some centres undefined)
output: class 0

input: Request: C=C(C)[C@@H]1[C@H]2OC(=O)[C@H]1[C@]1(O)C[C@H]3O[C@]34C(=O)O[C@H]2[C@]14C
output: class 0

input: Request: CN1C[C@@H]2CN(c3ccc(-c4ccccc4)nn3)C[C@@H]2C1
output: class 0

###

# Tested on: Zika virus NS2B-NS3 protease (unlinked complex)
# Method description: Primary screen GU Rhodamine qHTS for Zika virus inhibitors: Unlinked NS2B-NS3 protease assay (AID 1347159); note: % is set by controls: 0 for no effect and ±100 for the full control effect; nearly all actives have a fitted effect of over 60% in size
# Test parameters: Recombinant ZIKV NS2B-NS3 protease, Rhodamine110 substrate fluorescence; series mostly up to 107 µM
Inconclusive results are not listed. Active and inactive are the calls of the source. The call rests on the fitted dose curve; in most records, active means well fitted inhibition curve with a large enough effect; inconclusive means small, poorly fitted or top-dose-only effect; inactive means no such curve, though single readings can be large or run the other way.
Reported property: outcome

INSERT INTO measurements (compound, assayed_system, reported_property, meas_value) VALUES
  ('CC(=O)OC[C@]12C[C@H](OC(=O)CC(C)C)C(C)=C[C@H]1O[C@@H]1[C@H](O)[C@@H](OC(C)=O)[C@@]2(C)[C@@]12CO2', 'Zika virus NS2B-NS3 protease (unlinked complex)', 'outcome', 'inactive'),
  ('C=C(C)C(=O)O[C@H]1[C@@H]2[C@H](C)C(=O)O[C@@H]2C[C@@H](C)[C@@H]2C=CC(=O)[C@]21C', 'Zika virus NS2B-NS3 protease (unlinked complex)', 'outcome', 'inactive'),
  ('CC[C@@]1(O)C(=O)OCc2c1cc1n(c2=O)Cc2cc3c(OC)cccc3nc2-1', 'Zika virus NS2B-NS3 protease (unlinked complex)', 'outcome', 'inactive'),
  ('C[C@H]1O[C@@H](O[C@H]2CC[C@]3(C=O)C4CC[C@]5(C)[C@@H](C6=CC(=O)OC6)CC[C@]5(O)[C@@H]4CC[C@]3(O)C2)C[C@@H](O)[C@@H]1O (stereo partly drawn)', 'Zika virus NS2B-NS3 protease (unlinked complex)', 'outcome', 'inactive'),
  ('COC1C=CC23c4cc5c(cc4COC2(O)CN(C)C3C1)OCO5 (stereo not drawn)', 'Zika virus NS2B-NS3 protease (unlinked complex)', 'outcome', 'inactive');

input: I have this compound here, C[C@]12CC[C@H](O)C[C@@H]1CC[C@@H]1[C@@H]2CC[C@]2(C)C(=O)CC[C@@H]12 , and I need its recorded outcome.
output: inactive

input: Request: Cc1cccc(NC(=O)c2ccc(C(F)(F)F)cc2C(=O)O)n1
output: inactive

input: Request: CC(=O)NCCCOc1ccc(C(=O)N2CCC(N3C(=O)CCc4ccccc43)CC2)cc1
output: inactive

###

# Method description: Primary qHTS to identify inhibitors of SARS-CoV-2 cell entry (AID 1645846); note: nearly all actives have a fitted effect of over 45% in size
# Test parameters: SARS-CoV-2 pseudovirus cell entry assay, luminescence; at 57.1 µM (top of the series) unless noted
# Text: Assay Provider: Wei Zheng, Ph.D. National Center for Advancing Translational Sciences, National Institute of Health, Rockville, MD. SARS-CoV-2 spike protein, within the viral envelope, mediates viral attachment and infection of host cells. The SARS-CoV-2 spike protein specifically binds to the host receptor ACE2 (Angiotensin-converting enzyme 2). […] 11. […] Read luminescence signal (Viewlux plate reader, PerkinElmer). […]
Inconclusive results are not listed.
Examples of compounds with documented activity change, negative = inhibition follow.
# number only, unit % dropped from output

Worked set:
INSERT INTO assay_data (compound, meas_value) VALUES
  ('CC(C)c1cc(-c2n[nH]c(=O)n2-c2ccc3c(ccn3C)c2)c(O)cc1O', -96),
  ('CC(C)Nc1cc(C(F)(F)F)cc2nc(NC(=O)c3cccnc3)nn12', -4.48),
  ('CC(Oc1ccc(O)cc1)(P(=O)(O)O)P(=O)(O)O', -6.64),
  ('CC(C)C[C@H](NC(=O)CNC(=O)c1cc(Cl)ccc1Cl)B1OC(=O)CC(CC(=O)O)(C(=O)O)O1 (some centres not stated)', -99.4),
  ('CC(C(=O)O)c1ccc(-c2ccccc2)c(F)c1 (configuration not stated)', -16.8);

Now consider the entry below.
input: I have this compound here, O=C(CCc1ccc(O)cc1)c1c(O)cc(O)cc1O , and I need its recorded activity change, negative = inhibition.
output: -19.9
